These entries and their values trace back to ChEMBL document CHEMBL4422657.

Parameter: MIC. Scope: all listed entries.
system: Mycobacterium tuberculosis; assay: Antitubercular activity against Mycobacterium tuberculosis H37Rv after 7 days by Resazurin microtitre assay; format: functional; details: 168 h

SUBSTANCE SMILES | TARGET SYSTEM | MIC
COC(=O)[C@H](CC(C)C)NP(=O)(CCCC(=O)N(C)O)N[C@@H](CC(C)C)C(=O)OC | Mycobacterium tuberculosis | > 50 µM
CCOC(=O)[C@H](Cc1ccccc1)NP(=O)(CCCC(=O)N(C)O)N[C@@H](Cc1ccccc1)C(=O)OCC | Mycobacterium tuberculosis | > 50 µM
CCCCCOC(=O)[C@H](CC(C)C)NP(=O)(CCCC(=O)N(C)O)N[C@@H](CC(C)C)C(=O)OCCCCC | Mycobacterium tuberculosis | > 50 µM
CCOC(=O)[C@H](CC(C)C)NP(=O)(CCCC(=O)N(C)O)N[C@@H](CC(C)C)C(=O)OCC | Mycobacterium tuberculosis | 50 µM
CCOC(=O)[C@@H](NP(=O)(CCCC(=O)N(C)O)N[C@H](C(=O)OCC)C(C)C)C(C)C | Mycobacterium tuberculosis | > 50 µM
